ASSAY COMMENT: Analytical RP-HPLC retention time as measure of hydrophobicity
Format: physicochemical
RUN PARAMETERS: measure of global hydrophobicity, Phenomenex Kinetex 2.6 µm C18 (150 × 4.6 mm), 0.7 mL/min, ACN/TFA (100:0.0008) and water/TFA (100:0.001)
Square brackets hold non-standard residues; d marks the D form. Peptide text beside a SMILES is read from it. Tle = CC(C)(C)[C@H](N)C(=O)O; Orn = NCCC[C@H](N)C(=O)O; Abu = CC[C@H](N)C(=O)O
RP-HPLC retention time tR by entry:
Write the number in min without appending the unit.

Answered cases to consult:
| COMPOUND | READOUT LABEL | OBSERVED MEASUREMENT |
| --- | --- | --- |
| CC(C)C[C@@H]1NC(=O)[C@H](CCCN)NC(=O)[C@H](C(C)C)NC(=O)[C@@H]2CCCN2C(=O)[C@@H](Cc2ccccc2)NC(=O)[C@H](CC(C)C)NC(=O)[C@H](CCCNC(=N)N)NC(=O)[C@H](C(C)C)NC(=O)[C@@H]2CCCN2C(=O)[C@@H](CCCNC(=N)N)NC1=O [Peptide 15] (cyclo(L[dF]PV[Orn]L[dR]PVR)) | RP-HPLC retention time tR | 16.47 |
| CC[C@@H]1NC(=O)[C@@H]2CCCN2C(=O)[C@@H](Cc2ccccc2)NC(=O)[C@H](CC(C)C)NC(=O)[C@H](CCCNC(=N)N)NC(=O)[C@H](C(C)C)NC(=O)[C@@H]2CCCN2C(=O)[C@@H](CCCNC(=N)N)NC(=O)[C@H](CC(C)C)NC(=O)[C@H](CCCN)NC1=O [Peptide 16] (cyclo([Abu][Orn]L[dR]PVRL[dF]P)) | RP-HPLC retention time tR | 16.24 |
| CC(C)(C)[C@@H]1NC(=O)[C@H](CCCN)NC(=O)[C@H](C(C)(C)C)NC(=O)[C@@H]2CCCN2C(=O)[C@@H](Cc2ccccc2)NC(=O)[C@H](C(C)(C)C)NC(=O)[C@H](CCCN)NC(=O)[C@H](C(C)(C)C)NC(=O)[C@@H]2CCCN2C(=O)[C@@H](CCCNC(=N)N)NC1=O [Peptide 7] (cyclo([Orn][Tle][dF]P[Tle][Orn][Tle][dR]P[Tle])) | RP-HPLC retention time tR | 16.92 |
| CC(C)C[C@@H]1NC(=O)[C@H](CCCN)NC(=O)[C@H](C(C)(C)C)NC(=O)[C@@H]2CCCN2C(=O)[C@@H](Cc2ccccc2)NC(=O)[C@H](CC(C)C)NC(=O)[C@H](CCCN)NC(=O)[C@H](C(C)(C)C)NC(=O)[C@@H]2CCCN2C(=O)[C@@H](CCCNC(=N)N)NC1=O [Peptide 19] (cyclo(L[dF]P[Tle][Orn]L[dR]P[Tle][Orn])) | RP-HPLC retention time tR | 17.15 |
| CC[C@@H]1NC(=O)[C@@H]2CCCN2C(=O)[C@@H](CCCNC(=N)N)NC(=O)[C@H](CC(C)C)NC(=O)[C@H](CCCN)NC(=O)[C@H](C(C)C)NC(=O)[C@@H]2CCCN2C(=O)[C@@H](Cc2ccccc2)NC(=O)[C@H](CC(C)C)NC(=O)[C@H](CCCNC(=N)N)NC1=O [Peptide 17] (cyclo([Abu]RL[dF]PV[Orn]L[dR]P)) | RP-HPLC retention time tR | 16.32 |

Form field RP-HPLC retention time tR, entry CC(C)(C)[C@@H]1NC(=O)[C@H](CCCN)NC(=O)[C@H](C(C)(C)C)NC(=O)[C@@H]2CCCN2C(=O)[C@@H](Cc2ccccc2)NC(=O)[C@H](C(C)(C)C)NC(=O)[C@H](CCCN)NC(=O)[C@H](C(C)(C)C)NC(=O)[C@@H]2CCCN2C(=O)[C@@H](Cc2ccccc2)NC1=O [Peptide 1] (cyclo([Orn][Tle][dF]P[Tle][Orn][Tle][dF]P[Tle])) : 19.90

Note to self: RP-HPLC retention time tR recorded for CC[C@@H]1NC(=O)[C@@H]2CCCN2C(=O)[C@@H](CCCNC(=N)N)NC(=O)[C@H](CC(C)C)NC(=O)[C@H](CCCN)NC(=O)[C@H](CC)NC(=O)[C@@H]2CCCN2C(=O)[C@@H](Cc2ccccc2)NC(=O)[C@H](CC(C)C)NC(=O)[C@H](CCCNC(=N)N)NC1=O [Peptide 18] (cyclo([Abu][Orn]L[dR]P[Abu]RL[dF]P)) was 16.03
